Exercise: state measured normalized growth for each of the compounds provided.
assay: chemical genetic growth profiling, strain panel (AID 1159580);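 also: tested at 20 µM; growth read once vehicle control cultures reached saturation at 30 °C; 1 = growth at the plate median or of vehicle wells; lower values mean less growth of the strain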
condition.details: S. cerevisiae deletion strains, growth OD, locus YJL187C, strain SWE1 (second series), active compounds read low
The whole screen tested about 5,500 compounds, of which about 2,000 (36%) were called active. Roughly 18% stayed inconclusive and do not appear here. The list shows a part of the results.
Enter a number only.

Input O=c1[nH]oc2c1CCNC2 , output reported normalized growth. 1.02

Input CCN(CC)CCOC(=O)c1ccc(N)cc1 , output reported normalized growth. 1.01

Input Cc1ccc(Cl)c(Nc2ccccc2C(=O)O)c1Cl , output reported normalized growth. 0.897

Input CC(C)(C)CC(C)(C)c1ccc(O)c(Cc2ccc(Cl)cc2Cl)c1 , output reported normalized growth. 1.01

Input CCN(CC)C(=O)c1cccc(C)c1 , output reported normalized growth. 0.994

Input CCCCOC(=O)c1ccc(N)cc1 , output reported normalized growth. 0.93

Input CCCCOC(=O)c1ccccc1C(=O)OCc1ccccc1 , output reported normalized growth. 0.971

Input CCCCOC(=O)c1ccccc1C(=O)OCCCC , output reported normalized growth. 0.968

Input COc1c(OC)c2occc2c2oc(=O)ccc12 , output reported normalized growth. 0.947

Input C=C1C(=O)O[C@@H]2C[C@@]3(C)CCC[C@H](C)C3=C[C@H]12 , output reported normalized growth. 0.875

Input Cc1cccc(Nc2ccccc2C(=O)O)c1C , output reported normalized growth. 0.932

Input Oc1ccc(Cl)cc1 , output reported normalized growth. 0.986

Input COc1cc(-c2coc3cc(OC)c(OC)c(OC)c3c2=O)cc(OC)c1OC , output reported normalized growth. 0.968

Input COC(=O)C(C)c1ccc(C(=O)c2cccs2)cc1 (stereo not given) , output reported normalized growth. 1

Input CC(C)COCC(CN(Cc1ccccc1)c1ccccc1)N1CCCC1 (stereo not given) , output reported normalized growth. 0.801

Input CC1(C)C2CC(=O)[C@]3(C)C(CC[C@@]4(C)[C@H](c5ccoc5)OC(=O)[C@H]5O[C@]543)[C@@]2(C)C=C[C@@H]1O (stereo not given in full) , output reported normalized growth. 0.981

Input COC(=O)C(O)c1ccccc1 (stereo not given) , output reported normalized growth. 0.98

Input COc1cc(-c2coc3cc(OCc4ccccc4)c(OC)c(O)c3c2=O)cc(O)c1OC , output reported normalized growth. 0.837

Input CC(C(=O)O)c1ccc(C(=O)c2cccs2)cc1 (stereo not given) , output reported normalized growth. 1.01

Input CN1C(C(=O)Nc2ccccn2)=C(O)c2ccccc2S1(=O)=O , output reported normalized growth. 0.999

Input NC(=O)c1cccc(N)c1 , output reported normalized growth. 1.01

Input COc1c2ccoc2c(OC)c2oc(=O)ccc12 , output reported normalized growth. 0.959

Input CCCCCCOc1ccccc1C(N)=O , output reported normalized growth. 0.612

Input O=c1cc[nH]c(=S)[nH]1 , output reported normalized growth. 1.04

Input COC(=O)[C@@H]1OC(=O)[C@H]2O[C@@]23[C@@]1(C)CCC1[C@@]2(C)CCC(=O)C(C)(C)C2C[C@@H](OC(C)=O)[C@]13C (stereo not given in full) , output reported normalized growth. 1.04

###

assay: chemical genetic growth profiling, strain panel (AID 1159580);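 also: tested at 20 µM; growth read once vehicle control cultures reached saturation at 30 °C; 1 = growth at the plate median or of vehicle wells; lower values mean less growth of the strain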
condition.details: S. cerevisiae deletion strains, growth OD, locus YML016C, strain PPZ1, active compounds read low
Screen size: about 5,500 compounds; about 2,000 (36%) were called active. Not shown: some 18% with an inconclusive outcome. The list shows a part of the results.
Exercise: state measured normalized growth for each of the molecules provided.

Input O=c1cc[nH]c(=S)[nH]1 , output reported normalized growth. 1.02 (inactive)

Input CC1=CC2C(CC1=O)C(C)=CCC2C(C)C (stereo unspecified) , output reported normalized growth. 1.01 (inactive)

Input COc1cc(-c2coc3cc(OC)c(OC)c(OC)c3c2=O)cc(OC)c1OC , output reported normalized growth. 1 (inactive)

Input C#CCCCCCCCCCCCC(O)CC(O)COC(C)=O (stereo unspecified) , output reported normalized growth. 0.978 (inactive)

Input CC(C)C(C)/C=C/C(C)[C@H]1CCC2C3=CCC4CC(=O)CC[C@]4(C)C3CC[C@@]21C (stereo partly specified) , output reported normalized growth. 1.02 (inactive)

Input CC(=O)OCC[C@H](C)CCC=C(C)C , output reported normalized growth. 1.02 (inactive)

Input CCOC(=O)[C@H](CCc1ccccc1)N[C@@H](C)C(=O)N1[C@H](C(=O)O)C[C@@H]2CCC[C@@H]21 , output reported normalized growth. 1.02 (inactive)

Input COc1cc2occ(-c3ccccc3)c(=O)c2c(OC)c1C , output reported normalized growth. 0.956 (inactive)

Input COc1cc(-c2coc3cc(OCc4ccccc4)c(OC)c(O)c3c2=O)cc(O)c1OC , output reported normalized growth. 0.846 (active)

Input COC(=O)C1=CCCN(C)C1 , output reported normalized growth. 0.987 (inactive)

Input CC(C)C(C)/C=C/C(C)C1CCC2C3=CC=C4CC(O)CCC4(C)C3CCC21C (stereo unspecified) , output reported normalized growth. 0.973 (inactive)

###

assay: chemical genetic growth profiling, strain panel (AID 1159580);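 also: tested at 20 µM; growth read once vehicle control cultures reached saturation at 30 °C; 1 = growth at the plate median or of vehicle wells; lower values mean less growth of the strain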
condition.details: S. cerevisiae deletion strains, growth OD, locus YJL134W, strain LCB3, active compounds read low
Screen size: about 5,500 compounds; about 2,000 (36%) were called active. Not shown: some 18% with an inconclusive outcome. The list shows a part of the results.
assay.metric: normalized growth
Enter a number only.

Input CC(C)C(C)/C=C/C(C)[C@H]1CCC2C3=CCC4CC(=O)CC[C@]4(C)C3CC[C@@]21C (stereo partly specified) , output reported normalized growth. 1.02

Input CCCC(=O)O[C@]1(C(=O)CO)CCC2[C@@H]3CCC4=CC(=O)CC[C@]4(C)C3[C@@H](O)C[C@@]21C (stereo partly specified) , output reported normalized growth. 1.01

Input O=C(O)CN(CC(=O)O)Cc1cc2c(-c3ccccc3C(=O)O)c3cc(CN(CC(=O)O)CC(=O)O)c(=O)cc-3oc2cc1O , output reported normalized growth. 1.01

Input O=C(C1CCCCC1)N1CC(=O)N2CCc3ccccc3C2C1 (stereo unspecified) , output reported normalized growth. 1

Input NC(N)=NS(=O)(=O)c1ccc(N)cc1 , output reported normalized growth. 1

Input CC(C)[C@@H]1CC[C@@H](C)C[C@H]1O , output reported normalized growth. 1.01

Input COc1cc2c(cc1OC)C1Cc3ccc(OC)c(OC)c3CN1CC2 (stereo unspecified) , output reported normalized growth. 0.983

Input CC(C)COCC(CN(Cc1ccccc1)c1ccccc1)N1CCCC1 (stereo unspecified) , output reported normalized growth. 0.988

Input OC(Cn1cncn1)(Cn1cncn1)c1ccc(F)cc1F , output reported normalized growth. 0.994

Input C=C1C(=O)O[C@@H]2C3O[C@]3(C)CC/C=C(\C)CC[C@@H]12 (stereo partly specified) , output reported normalized growth. 0.943

Input CC1(C)C2(Cl)C(Cl)C(Cl)C(Cl)(C(Cl)Cl)C1(Cl)C2Cl (stereo unspecified) , output reported normalized growth. 0.991

Input CC(=O)OC1CCC2(C)C(=CC=C3C2CCC2(C)C3CCC2C(C)/C=C/C(C)C(C)C)C1(C)C (stereo unspecified) , output reported normalized growth. 1.01

Input COc1ccc2c(c1)CCC(c1ccccc1)=C2c1ccc(OCCN2CCCC2)cc1 , output reported normalized growth. 1.01

Input Cn1c(=O)c2[nH]cnc2n(C)c1=O , output reported normalized growth. 0.989

Input C[N+]1(C)C2CC(OC(=O)[C@@H](CO)c3ccccc3)CC1C1OC12 (stereo partly specified) , output reported normalized growth. 1

Input NC[C@@H]1CC[C@@H](N)[C@@H](O[C@H]2[C@H](O)[C@@H](O[C@H]3O[C@H](CO)[C@@H](O)[C@H](N)[C@H]3O)[C@H](N)C[C@@H]2N)O1 , output reported normalized growth. 0.978

Input CC1OC1P(=O)(O)O (stereo unspecified) , output reported normalized growth. 0.989

Input O=C(O)c1cc2cc(Cc3cccnc3)ccc2o1 , output reported normalized growth. 1

Input O=c1cc[nH]c(=S)[nH]1 , output reported normalized growth. 1.01

Input CC(C)NC[C@H](O)COc1cccc2ccccc12 , output reported normalized growth. 1.01

Input COC(=O)C[C@H]1C(C)(C)C(=O)[C@@H]2CC3=C(CC[C@]4(C)C3=CC(=O)O[C@H]4c3ccoc3)[C@@]1(C)C2=O , output reported normalized growth. 1

###

assay: chemical genetic growth profiling, strain panel (AID 1159580);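 also: tested at 20 µM; growth read once vehicle control cultures reached saturation at 30 °C; 1 = growth at the plate median or of vehicle wells; lower values mean less growth of the strain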
condition.details: S. cerevisiae deletion strains, growth OD, locus YNL128W, strain TEP1, active compounds read low
The campaign covered roughly 5,500 compounds. About 2,000 (36%) were called active. Roughly 18% stayed inconclusive and do not appear here. This is one part of the list.
assay.metric: normalized growth
Enter a number only.

Input NC(=O)c1cccc(N)c1 , output reported normalized growth. 1.01

Input C=C1C(C)C2C(Cc3ccccc3)NC(=O)C23OC(=O)/C=C/C(O)CCCC(C)C/C=C/C3C1O (configuration not stated) , output reported normalized growth. 1.01

Input COc1c2ccoc2c(OC)c2oc(=O)ccc12 , output reported normalized growth. 0.932

Input O=c1[nH]oc2c1CCNC2 , output reported normalized growth. 1.03

Input Nc1nc2ncc(=O)[nH]c2c(=O)[nH]1 , output reported normalized growth. 1.03

Input COc1nc(C)nc(Cl)c1NC1=NCCN1 , output reported normalized growth. 1.01

Input CN1C(C(=O)Nc2ccccn2)=C(O)c2ccccc2S1(=O)=O , output reported normalized growth. 1.02

Input CC(C)[C@@H]1CC[C@@H](C)C[C@H]1O , output reported normalized growth. 1.02

Input CCOC(=O)[C@H](CCc1ccccc1)N[C@@H](C)C(=O)N1[C@H](C(=O)O)C[C@@H]2CCC[C@@H]21 , output reported normalized growth. 1

Input C=CC(N)CCC(=O)O (configuration not stated) , output reported normalized growth. 0.972

Input Cc1ccc(NC(=S)NCCO)c(C)c1 , output reported normalized growth. 1

Input C#CCCCCCCCCCCCC(O)CC(O)CO (configuration not stated) , output reported normalized growth. 1.01

Input CO/N=C(\C(=O)N[C@@H]1C(=O)N2C(C(=O)O)=C(COC(C)=O)CS[C@H]12)c1csc(N)n1 , output reported normalized growth. 0.996

Input C=C1C(C)C2C(Cc3ccccc3)NC(=O)C23OC(=O)/C=C/C(=O)CCCC(C)C/C=C/C3C1O (configuration not stated) , output reported normalized growth. 0.973

Input C[N+](C)(CCCCCC[N+](C)(C)CCCN1C(=O)c2cccc3cccc(c23)C1=O)CCCN1C(=O)c2cccc3cccc(c23)C1=O , output reported normalized growth. 0.995

Input COc1ccc2c(c1)c(CC(=O)O)c(C)n2Cc1ccc(F)cc1 , output reported normalized growth. 0.993

Input C#CCCCCCCCCCCCC(=O)CC(O)COC(C)=O (configuration not stated) , output reported normalized growth. 0.872

Input C[N+]1(C)C2CC(OC(=O)C(CO)c3ccccc3)CC1C1OC12 (configuration not stated) , output reported normalized growth. 0.992

Input Oc1ccc2c(c1)OCC1c3cc4c(cc3OC21)OCO4 (configuration not stated) , output reported normalized growth. 1.01

Input COc1ccc2c(c1O)OCC1c3cc4c(cc3OC21)OCO4 (configuration not stated) , output reported normalized growth. 0.929

Input COC(=O)C1=CCCN(C)C1 , output reported normalized growth. 0.986

Input CC(=O)c1ccc(-c2cccs2)s1 , output reported normalized growth. 0.98

Input CC(=O)OCC(COC(C)=O)OC(C)=O , output reported normalized growth. 1.02

Input COc1cc2occ(-c3ccccc3)c(=O)c2c(OC)c1C , output reported normalized growth. 0.963

Input O=C(Cn1ccnc1[N+](=O)[O-])NCCO , output reported normalized growth. 0.991

Input C[C@@H](CN1CCC(Cc2ccccc2)CC1)[C@@H](O)c1ccc(O)cc1 , output reported normalized growth. 1.03

Input C=CCSCC1Nc2cc(Cl)c(S(N)(=O)=O)cc2S(=O)(=O)N1 (configuration not stated) , output reported normalized growth. 1.01

Input CCN(CC)C(=O)c1cccc(C)c1 , output reported normalized growth. 1

Input O=C1CC2OCC=C3CN4CC[C@]56c7ccccc7N1C5[C@H]2[C@H]3CC46 (some centres not stated) , output reported normalized growth. 1.01

Input CC(=O)Oc1c(C)cccc1C(=O)O , output reported normalized growth. 1.01

Input CC(=O)N[C@@H](CS)C(=O)O , output reported normalized growth. 1.03

Input COC(=O)C(C)c1ccc(C(=O)c2cccs2)cc1 (configuration not stated) , output reported normalized growth. 1.03

Input CO[C@@]1(NC(=O)CSCC#N)C(=O)N2C(C(=O)O)=C(CSc3nnnn3C)CSC21 (some centres not stated) , output reported normalized growth. 1.02

Input CC(C)(C)S(=O)(=O)/C(C#N)=C/N1CCCCC1 , output reported normalized growth. 1

Input Oc1cc2c(cc1O)CN(C(=S)NCCc1ccc(Cl)cc1)CCC2 , output reported normalized growth. 0.975

Input CC(C)NCC(O)COc1cccc2ccccc12 (configuration not stated) , output reported normalized growth. 0.995

Input CC(C)C(=O)Nc1ccc([N+](=O)[O-])c(C(F)(F)F)c1 , output reported normalized growth. 1.01
